Origin of the recorded values: patent US20250382344A1

Here, each record is paired with measured EC50, CreLuc reporter, 0.5% hP data.
molecular target: human GLP-1 receptor (human, UniProt P43220 24-463); experiment: cell-based or functional assay
*1 amine or outer side, *2 acyl side, *3 side chain or, on linkers, in order; H or OH if unused. Where no end group is shown, it is not given here. Side-chain parts run from the residue outwards. [ ]: non-standard residue; d: D form. The star is where a group is joined. C20 diacid = O=C(O)CCCCCCCCCCCCCCCCCCC(=O)*; C18 diacid = O=C(O)CCCCCCCCCCCCCCCCC(=O)*; γGlu = O=C(O)[C@H](CCC(=O)[*:2])N[*:1]; εLys = N[C@@H](CCCCN[*:1])C(=O)[*:2]; AEEA = NCCOCCOCC(=O)O; Aib = CC(C)(N)C(=O)O
measurementLabel: EC50, CreLuc reporter, 0.5% hP (nM)

binder	unitsText	readoutNumber
Y[Aib]EGTFTSDLSI[Aib]LEKQAQ[Aib]AFVRHLINK([γGlu-γGlu-εLys-γGlu-γGlu-γGlu-γGlu-C20 diacid])[Aib]TRQRY-NH2 [Compound 166]	nM	8
YXEGTFTSDYSIXLEKEAQXAFVRHLINKXTRQRY (Aib at 2, 13, 20, 30; Lys29 epsilon-amino: C18DA-gGlu-gGlu-gGlu-gGlu-gGlu-gGlu-eLys; C-terminal amide) [Compound 164]	nM	0.6
YXEGTFTSDYSIXLEKQAAXAFVRHLINKXTRQRY (Aib at 2, 13, 20, 30; Lys29 epsilon-amino: C18DA-gGlu-gGlu-gGlu-gGlu-gGlu-gGlu-eLys; C-terminal amide) [Compound 111]	nM	4.7
YXEGTFTSDYSAXLEKQAQXAFVRHLINKXTRQRY (Aib at 2, 13, 20, 30; Lys29 epsilon-amino: C18DA-gGlu-gGlu-gGlu-gGlu-gGlu-gGlu-eLys; C-terminal amide) [Compound 156]	nM	7
YXEGTFTSDYSIXLEKQAQXAFVRHLINKXTRQXY (Aib at 2, 13, 20, 30; bhArg at 34; Lys29 epsilon-amino: C18DA-gGlu-gGlu-gGlu-gGlu-gGlu-gGlu-eLys; C-terminal amide) [Compound 146]	nM	1
Y[Aib]EGTFTSDYSI[Aib]LEKQAQ[Aib]AFVRHLINK([γGlu-γGlu-γGlu-γGlu-γGlu-γGlu-C18 diacid])[Aib]TRQRY-NH2 [Compound 134]	nM	1
Y[Aib]EGTFTSDYSI[Aib]LEKQAE[Aib]AFVRHLINK([εLys-AEEA-γGlu-γGlu-γGlu-γGlu-γGlu-C20 diacid])[Aib]TRQRY-NH2 [Compound 161]	nM	2
